Cited source for all entries: patent US9976134B2

Please go through the items and note down their PI (relative stability), 25% TIDE 2X with DTPA.
Test: Stability assay in 25% TIDE 2X detergent with DTPA (residual Abz-AGLA-Nba protease activity)
Type: physicochemical
Conditions: 60 min at 32°C; variant residual AGLA activity divided by wild-type residual activity
One number for each entry.

T049S: single-substitution thermolysin variant (SEQ ID NO:3 numbering) (protein, listed as Geobacillus caldoproteolyticus) ITGTSTVGVGRGVLGDQKNINTTYSTYYYLQDNTRGNGIFTYDAKYRTSLPGSLWADADNQFFASYDAPAVDAHYYAGVTYDYYKNVHNRLSYDGNNAAIRSSVHYSQGYNNAFWNGSQMVYGDGDGQTFIPLSGGIDVVAHELTHAVTDYTAGLIYQNESGAINEAISDIFGTLVEFYANKNPDWEIGEDVYTPGISGDSLRSMSDPAKYGDPDHYSKRYTGTQDNGGVHINSGIINKAAYLISQGGTHYGVSVVGIGRDKLGKIFYRALTQYLTPTSNFSQLRAAAVQSATDLYGSTSQEVASVKQAFDAVGVK	1.08

Next molecule, PI (relative stability), 25% TIDE 2X with DTPA to be filled in.
Look at this molecule and give its reported PI (relative stability), 25% TIDE 2X with DTPA. Q128I: single-substitution thermolysin variant (SEQ ID NO:3 numbering) (protein, listed as Geobacillus caldoproteolyticus) ITGTSTVGVGRGVLGDQKNINTTYSTYYYLQDNTRGNGIFTYDAKYRTTLPGSLWADADNQFFASYDAPAVDAHYYAGVTYDYYKNVHNRLSYDGNNAAIRSSVHYSQGYNNAFWNGSQMVYGDGDGITFIPLSGGIDVVAHELTHAVTDYTAGLIYQNESGAINEAISDIFGTLVEFYANKNPDWEIGEDVYTPGISGDSLRSMSDPAKYGDPDHYSKRYTGTQDNGGVHINSGIINKAAYLISQGGTHYGVSVVGIGRDKLGKIFYRALTQYLTPTSNFSQLRAAAVQSATDLYGSTSQEVASVKQAFDAVGVK
1.32
